Source listed as PubChem BioAssay (NCI).

# Test system: T-47D breast
# assay: NCI tumour cell line growth inhibition, 48 h

molecule	TGI
O=C(N/N=C/c1ccc([N+](=O)[O-])cc1)Nc1ccc(C(=O)O)cc1	49.5 µM
O=C(CCCCCCN1CC(=O)N2[C@@H](c3ccc(Cl)c(Cl)c3)c3[nH]c4ccccc4c3C[C@H]2C1=O)NO	25.2 µM
COc1ccc(-c2nc(/C=C3\SC(=NCc4ccccc4)NC3=O)c3ccccn23)cc1	3.11 µM
CC(C)C(C(=O)O)N1C(=O)c2ccccc2C1=O (configuration not stated)	> 100 µM
COC1C(O)C(CO)OC(OC2C(O)COC(OC3C(C)OC(OC4C(O[C@H]5CC[C@@]6(C)C(CC=C7[C@H]6CCC68C(=O)O[C@@](C)(CCCC(C)C)[C@H]6[C@@H](OC(C)=O)C[C@@]78C)C5(C)C)OCC(OS(=O)(=O)O)C4O)C(OC4OCC(O)C(O)C4O)C3O)C2O)C1O (some centres not stated)	0.529 µM
O=C(/C=C/c1cccc(O)c1)c1cccc(-n2cc(-c3ccccc3)[nH]c2=O)c1	12.1 µM
O=C(Nc1cccc(-n2cc(-c3ccncc3)c(-c3cc(O)cc(Cl)c3)n2)c1)c1cc(C(F)(F)F)cc(C(F)(F)F)c1	94.5 µM

* * *

# Test system: MCF7 breast
# assay: NCI tumour cell line growth inhibition, 48 h
endpoint_label: GI50

> print(dat)
                                    compound  target.desc  endpoint.label  reported.value
 1  COC(=O)c1cc2c(cc1Cl)SC1=NN(C)C(N(C)C)N1S2(=O)=O (stereo not given)  MCF7 breast            GI50     > 100000 nM
 2  COc1ccc(-c2nc(/C=C3\SC(=NCc4ccccc4)NC3=O)c3ccccn23)cc1  MCF7 breast            GI50         1550 nM
 3  COc1ccc(NC(=O)C2CCC(CNS(=O)(=O)c3ccccc3)CC2)cc1OC (stereo not given)  MCF7 breast            GI50     > 100000 nM
 4  COc1ccc(N(CC(=O)NCCC[Te]c2ccccc2)C(=O)CNC(=O)OC(C)(C)C)cc1  MCF7 breast            GI50         2570 nM
 5  Nc1nc(Nc2ccccc2SSc2ccccc2Nc2nc(N)nc(C(Cl)(Cl)Cl)n2)nc(C(Cl)(Cl)Cl)n1  MCF7 breast            GI50         6460 nM
 6     COC(=O)c1cncc(/C=C/c2c(C)cc(O)cc2C)c1  MCF7 breast            GI50        11500 nM
 7  C=CCN1CC(=O)N2[C@@H](Cc3ccc(O)cc3F)C(=O)N(Cc3cccc(N4CC(N5CCN(CC)CC5)C4)n3)C[C@@H]2N1C(=O)NCc1ccccc1  MCF7 breast            GI50          524 nM
 8  O=C(CCCCCCN1CC(=O)N2[C@@H](c3ccc(Cl)c(Cl)c3)c3[nH]c4ccccc4c3C[C@H]2C1=O)NO  MCF7 breast            GI50         1870 nM
 9  COc1cc2c(cc1OCCCCN1CCN(C(=S)SCCC(C#N)(c3ccccc3)c3ccccc3)CC1)N=C[C@@H]1CCCN1C2=O  MCF7 breast            GI50          435 nM
10                  Cc1cc(N=Nc2ccccc2C)ccc1N  MCF7 breast            GI50        16500 nM

* * *

# Test system: IGROV1 ovarian
# assay: NCI tumour cell line growth inhibition, 48 h; in the data active = GI50 below about 0.43 µM; inactive = the rest
Outcomes: YES = active, NO = inactive

compound	category_label
C[C@]12CC[C@@H]3c4cc(OC(F)F)c(OS(N)(=O)=O)cc4CC[C@H]3[C@@H]1CC[C@@H]2O	NO
COc1ccc(-c2nc(/C=C3\SC(=NCc4ccccc4)NC3=O)c3ccccn23)cc1	NO
COC(=O)c1cc2c(cc1Cl)SC1=NN(C)C(N(C)C)N1S2(=O)=O (stereo not drawn)	NO
Cn1cc(C2=C(c3cccc(OC[C@@H](O)CO)c3)C(=O)NC2=O)c2ccccc21	NO
O=C(CC1(O)C(=O)N(Cc2ccccc2)c2ccccc21)c1ccc(C(=O)NCC2CCC3(CC2)OOC2(CCCCC2)OO3)cc1 (stereo not drawn)	YES
C#CCNC(=O)[C@H](CC)[C@H]1CC[C@H](C)[C@H]([C@@H](C)[C@H](O)[C@H](C)C(=O)[C@H](CC)C2O[C@]3(C=CC(=O)[C@]4(CC[C@@](C)([C@H]5CC[C@](O)(CC)[C@H](C)O5)O4)O3)[C@H](C)C[C@@H]2C)O1 (stereo partly drawn)	NO
N#CCCN1C/C(=C/c2ccc(Cl)cc2)C(=O)/C(=C/c2ccc(Cl)cc2)C1	NO
CC(C)(Br)C(=O)C(Br)Br	NO

* * *

# System: SK-MEL-2 melanoma
# assay: NCI tumour cell line growth inhibition, 48 h
Where a SMILES comes first, the peptide text is derived from it. The star is where a group is joined. Palmitoyl = CCCCCCCCCCCCCCCC(=O)*
Known TGI of a selection of molecules

molecule	TGI
NC(=O)NNC(=O)NC12CC3CC(CC(C3)C1)C2	> 100 µM
CC(=O)OCCOCNC(=S)N/N=C/c1cc(Br)cs1	> 100 µM
CC1(C)CNCC(C)(OCc2ccccc2)C(=O)NC(C)(C)CNCC(C)(OCc2ccccc2)C(=O)N1 (centres undefined)	> 10 µM
C=C(C)C1Cc2c(c3ccccc3n(C)c2=O)O1 (centres undefined)	> 100 µM
COc1ccc(NC(=O)C2CCC(CNS(=O)(=O)c3ccccc3)CC2)cc1OC (centres undefined)	> 100 µM
CCOC(=O)C1(C(=O)OCC)[C@@H](c2ccccc2)C2=NO[C@@H]3CCC[C@H]1[C@H]23	> 100 µM
CCOC(=O)/C=C/CCO[Si](C)(C)C(C)(C)C	> 100 µM
CC12C=CC(=O)C=C1CCC1C3CCC(O)(C(=O)CO)C3(C)CC(O)C12F (centres undefined)	> 100 µM
COc1cc(/C=C/C(=O)c2cccc(-n3cc(-c4ccc(Cl)cc4)[nH]c3=O)c2)cc(OC)c1OC	12.5 µM
Cc1cn(CCCCC2=NCCCN2)c(=O)[nH]c1=O	> 35.9 µM
OC(C#Cc1ccccc1)(c1ccccc1)c1ccccc1	55.4 µM
O=C(NC1CCN(Cc2ccccc2)CC1)c1ccc(I)cc1	> 100 µM
CCCCCCCCCCCCCCCC(=O)N1CCCC1C(=O)NCC(=O)NC(Cc1ccccc1)C(=O)NC(C)C(=O)NC(CO)C(=O)NC(Cc1ccc(O)cc1)C(=O)NC(CCCCN)C(=O)NC(CC(C)C)C(=O)NC(CCCN=C(N)N)C(=O)N1CCCC1C(=O)NCC(N)=O (centres undefined) (Palmitoyl-PGFASYKLRPG-NH2; configuration not given here)	> 100 µM
Cc1ccc2nc(N/N=C/c3sccc3C)cc(C)c2c1	> 100 µM
CCC(=O)C(CCN1CCC2(CCCc3ccccc32)CC1)(c1ccccc1)c1ccccc1	4.34 µM
O=C(c1cccs1)N(C(=S)OCCOc1ccccc1)c1ccccc1	55.6 µM
CCCC1CCC(=C2C(=O)CCC2=O)O1 (centres undefined)	> 100 µM
CC(=O)C1=CN=C2C(=O)N(c3ccccc3)N(C)C12C (centres undefined)	> 100 µM
CCc1cccc(C)c1NC(=O)c1sc2nc3c(cc2c1N)C(=O)CCC3	27.3 µM

* * *

Below is a list of entries, each paired with its recorded TGI value.
# System: A498 renal
# assay: NCI tumour cell line growth inhibition, 48 h

molecule	TGI
C/C(=N/N=C(\[O-])c1ccncc1)C(F)(F)F.C/C(=N\N=C(/[O-])c1ccncc1)C(F)(F)F.[Ni+2]	> 1 µM
CCN1CCC(O)(/C=C/c2ccccc2C)C(C(=O)/C=C/c2ccccc2C)C1 (stereo unspecified)	4.55 µM
C#CCNC(=O)[C@H](CC)[C@H]1CC[C@H](C)[C@H]([C@@H](C)[C@H](O)[C@H](C)C(=O)[C@H](CC)C2O[C@]3(C=CC(=O)[C@]4(CC[C@@](C)([C@H]5CC[C@](O)(CC)[C@H](C)O5)O4)O3)[C@H](C)C[C@@H]2C)O1 (stereo partly specified)	6.07 µM
CC(=O)Oc1ccc(/C=C/C(=O)OCCCOC(=O)/C=C/c2ccc(OC(C)=O)c(OC(C)=O)c2)cc1OC(C)=O	> 100 µM
Cn1c(-c2ccccc2)cc(-c2cccs2)c1-c1cccs1	> 100 µM
C[N+](C)(C)CC1CCCC1=O (stereo unspecified)	17.7 µM
N#CCN1CCn2c1nsc2=S	> 100 µM
C[C@]12C[C@@H](OC(=O)[C@]1(C)O)[C@@H]([C@]1(O)CC[C@H]3[C@@H]4C[C@H]5O[C@]56C[C@H]5O[C@H]5C(=O)[C@]6(C)[C@H]4CC[C@@]31C)C2	> 50 µM
C=C(C)C1Cc2c(c3ccccc3n(C)c2=O)O1 (stereo unspecified)	> 100 µM
COc1cc(C(C)O)c[n+](Cc2ccccc2)c1 (stereo unspecified)	> 100 µM
COc1ccc(-c2cc(C(=O)Nc3ccc(C)c(C)c3)nc(NC#N)n2)cc1	> 100 µM
